Listed next: entries and their corresponding pIC50.
System: PC3 prostate cancer cells
Assay: MTT cell viability assay, PC3
Format: cell-based
Conditions: MTT, 72 hours
pIC50: −log10 of the molar value.
test_readout: pIC50

>>> numeric_result("CCCCCCCCc1ccc(C(=O)Nc2ccc(C)cc2C(=O)O)cc1OC [compound 6280]")
4.74
>>> numeric_result("CCCCCCCCc1ccc(C(=O)Nc2ccccc2P(=O)(O)O)cc1 [compound 6286]")
4.60

====

Molecular target: PLK1 PBD (367-603) (Homo sapiens)
Construct: PLK1 PBD (367-603) and PLK3 PBD (335-646) proteins were obtained from BPS Biosciences Inc; purchased BPS Biosciences Inc. (San Diego, CA)
Assay: Fluorescence polarization assay, PLK1 PBD
Assay type: binding
Details: fluorescence polarization; read-out: PLK1 PBD IC50
test_readout: IC50 (µM)

>>> numeric_result("CCCCCCCCc1ccc(C(=O)Nc2ccc(C(F)(F)F)cc2C(=O)O)cc1")
23.5
>>> numeric_result("CCCCCCCCc1ccc(C(=O)Nc2ccccc2P(=O)(O)O)cc1")
53
>>> numeric_result("CCCCCCCCc1ccc(C(=O)Nc2ccc(C)cc2C(=O)O)cc1C")
21

====

Molecular target: PLK1 PBD (367-603) (Homo sapiens, UniProt P53350)
Construct: PLK1 PBD (367-603) and PLK3 PBD (335-646) proteins were obtained from BPS Biosciences Inc; purchased BPS Biosciences Inc. (San Diego, CA)
Sequence (P53350 367-603): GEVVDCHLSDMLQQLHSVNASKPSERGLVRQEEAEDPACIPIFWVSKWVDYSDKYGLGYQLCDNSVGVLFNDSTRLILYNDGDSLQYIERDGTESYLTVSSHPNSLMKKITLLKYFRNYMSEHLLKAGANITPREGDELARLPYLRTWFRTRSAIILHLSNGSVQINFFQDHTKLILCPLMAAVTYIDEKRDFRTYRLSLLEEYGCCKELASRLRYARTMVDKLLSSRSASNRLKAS
Assay: Fluorescence polarization assay, PLK1 PBD
Format: binding
Details: fluorescence polarization; read-out: PLK1 PBD IC50
test_readout: IC50 (µM)

>>> numeric_result("CCCCCCCCc1ccc(C(=O)Nc2ccccc2CP(=O)(O)O)cc1 [compound 6184]")
95.3
>>> numeric_result("CCCCCCCCc1ccc(C(=O)Nc2cccc(P(=O)(O)O)c2)cc1 [compound 6287]")
80.8
>>> numeric_result("CCCCCCCCc1cccc(CC(=O)Nc2ccc(C)cc2C(=O)O)c1 [compound 6277]")
19.7
>>> numeric_result("CCCCCCCCc1ccc(C(=O)Nc2ccc(C)cc2C(=O)O)cc1O [compound 6279]")
31.8
>>> numeric_result("CCCCCCCCc1cccc(C(=O)Nc2ccc(C)cc2C(=O)O)c1 [compound 6281]")
19.5
>>> numeric_result("CCCCCCCCc1ccc(C(=O)Nc2cccc(CP(=O)(O)O)c2)cc1 [compound 6195]")
51.5

====

Molecular target: PLK3 PBD (335-646) (Homo sapiens, UniProt Q9H4B4)
Sequence (Q9H4B4 335-646): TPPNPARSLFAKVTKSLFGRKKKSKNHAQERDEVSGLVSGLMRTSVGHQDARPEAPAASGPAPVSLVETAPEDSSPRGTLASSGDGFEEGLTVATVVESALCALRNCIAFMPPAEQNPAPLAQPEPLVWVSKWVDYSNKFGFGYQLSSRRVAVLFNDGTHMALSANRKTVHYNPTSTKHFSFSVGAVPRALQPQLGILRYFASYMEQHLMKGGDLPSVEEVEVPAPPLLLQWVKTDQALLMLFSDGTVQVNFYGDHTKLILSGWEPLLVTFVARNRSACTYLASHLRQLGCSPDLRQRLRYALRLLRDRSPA
pIC50: −log10 of the molar value.
test_readout: pIC50

>>> numeric_result("CCCCCCCCc1cccc(CC(=O)Nc2ccc(C)cc2C(=O)O)c1")
4.53
>>> numeric_result("CCCCCCCCc1ccc(C(=O)Nc2ccc(C(F)(F)F)cc2C(=O)O)cc1")
4.42

====

Target: PLK1 PBD (367-603) (Homo sapiens, UniProt P53350)
Construct: PLK1 PBD (367-603) and PLK3 PBD (335-646) proteins were obtained from BPS Biosciences Inc; purchased BPS Biosciences Inc. (San Diego, CA)
Experiment: Fluorescence polarization assay, PLK1 PBD
Type: binding
Conditions: fluorescence polarization; read-out: PLK1 PBD IC50
test_readout: IC50

>>> result("Cc1ccc(C(=O)O)c(NC(=O)c2ccc(N)cc2)c1")
"> 600 µM"
>>> result("Cc1ccc(NC(=O)c2ccc(N)cc2)c(C(=O)O)c1")
"> 600 µM"
>>> result("CCCCCCCCN(C)c1ccc(C(=O)Nc2cc(C)ccc2C(=O)O)cc1")
"> 600 µM"
